- TARGET_OF_ASSAY: Virion infectivity factor (Human immunodeficiency virus type 1 group M subtype B (isolate BH10)) + Virion infectivity factor (Human immunodeficiency virus type 1 group M subtype B (isolate BRU/LAI)) + Virion infectivity factor (Human immunodeficiency virus type 1 group M subtype B (isolate PCV12)) + Virion infectivity factor (Human immunodeficiency virus type 1 group M subtype B (isolate HXB2)) (UniProt P69720+P69721+P69722+P69723)
- Sequence (P69720 whole entry, looked up): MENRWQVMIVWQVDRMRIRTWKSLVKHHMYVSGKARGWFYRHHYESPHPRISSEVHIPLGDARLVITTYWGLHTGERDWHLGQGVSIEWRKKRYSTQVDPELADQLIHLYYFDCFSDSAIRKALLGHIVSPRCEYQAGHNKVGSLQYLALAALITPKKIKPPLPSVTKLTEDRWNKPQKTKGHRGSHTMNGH
- Sequence (P69721 whole entry, looked up): as the sequence (P69720 whole entry, looked up) above
- Sequence (P69722 whole entry, looked up): as the sequence (P69720 whole entry, looked up) above
- Sequence (P69723 whole entry, looked up): as the sequence (P69720 whole entry, looked up) above
- MEASUREMENT_DESCRIPTION: dose-dependent disruption of HIV Vif self-association – imaging, HEK293T, cherry-picks, dose response (AID 652241);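 further: imaged cell signal that rises when Vif self-association is disrupted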
- CONDITIONS_USED: HEK293T Vif multimerization imaging, 24 h; at 2.1 µM (top of the series)
Results filed as inconclusive are left out. Activity calls are given as the source filed them.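 How the source made its calls: active means fitted curve reaches activity 50 in the expected rising direction at or below the top valid tested dose; inconclusive means no clear call, values can overlap the other calls; inactive means activity in the wrong direction, and the rest.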

- COMPOUND: "Cc1nc(NC(=O)C(C)Oc2cccc(Cl)c2)sc1C(=O)N(C)C (centres undefined)"
  activity, higher = inhibition: "inactive"
- COMPOUND: "COc1ccc(/C=C2\\CN(Cc3ccccc3)C/C(=C\\c3ccc(OC)c(O)c3)C2=O)cc1O"
  activity, higher = inhibition: "inactive"
- COMPOUND: "OCC1OC(n2cnc3c(NCc4ccco4)ncnc32)C(O)C1O (centres undefined)"
  activity, higher = inhibition: "inactive"
- COMPOUND: "Cc1ccc(/C=C2/CNC/C(=C/c3ccc(C)cc3)C2=O)cc1"
  activity, higher = inhibition: "inactive"

* * *

- TARGET_OF_ASSAY: Virion infectivity factor (Human immunodeficiency virus type 1 group M subtype B (isolate BH10)) + Virion infectivity factor (Human immunodeficiency virus type 1 group M subtype B (isolate BRU/LAI)) + Virion infectivity factor (Human immunodeficiency virus type 1 group M subtype B (isolate PCV12)) + Virion infectivity factor (Human immunodeficiency virus type 1 group M subtype B (isolate HXB2)) (UniProt P69720+P69721+P69722+P69723)
- MEASUREMENT_DESCRIPTION: dose-dependent disruption of HIV Vif self-association – imaging, HEK293T, cherry-picks, dose response (AID 652241);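 further: imaged cell signal that rises when Vif self-association is disrupted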
- CONDITIONS_USED: HEK293T Vif multimerization imaging, 24 h; at 19.5 µM (top of the series)
Inconclusive results are not listed. The source made the active and inactive calls.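 The calls were made as follows: active = fitted curve reaches activity 50 in the expected rising direction at or below the top valid tested dose; inconclusive = no clear call, values can overlap the other calls; inactive = activity in the wrong direction, and the rest.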
QUANTITY: activity, higher = inhibition

- COMPOUND: "Cc1cccc(N2CCN(C(=O)c3cc4ccccc4oc3=O)CC2)c1C"
  RECORDED_VALUE: "inactive"
- COMPOUND: "CCCn1c(=O)c(C(=O)Nc2ncccc2O)c(O)c2ccccc21"
  RECORDED_VALUE: "inactive"
- COMPOUND: "COc1ccc(C(=O)Nc2c(Cl)cc(Cl)cc2C(=O)N2CCOCC2)cc1"
  RECORDED_VALUE: "inactive"
- COMPOUND: "COc1ccc(CC(NC(C)=O)C(=O)NC2CCN(C(=O)c3ccccc3F)CC2)cc1 (stereo not given)"
  RECORDED_VALUE: "inactive"
- COMPOUND: "CCCCOc1cccc2c(=O)n(CC(=O)Nc3ccc4c(c3)OCCO4)ccc12"
  RECORDED_VALUE: "inactive"

* * *

- TARGET_OF_ASSAY: Virion infectivity factor (Human immunodeficiency virus type 1 group M subtype B (isolate BH10)) + Virion infectivity factor (Human immunodeficiency virus type 1 group M subtype B (isolate BRU/LAI)) + Virion infectivity factor (Human immunodeficiency virus type 1 group M subtype B (isolate PCV12)) + Virion infectivity factor (Human immunodeficiency virus type 1 group M subtype B (isolate HXB2)) (UniProt P69720+P69721+P69722+P69723)
- MEASUREMENT_DESCRIPTION: dose-dependent disruption of HIV Vif self-association – imaging, HEK293T, cherry-picks, dose response (AID 652241);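 further: imaged cell signal that rises when Vif self-association is disrupted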
- CONDITIONS_USED: HEK293T Vif multimerization imaging, 24 h
Records with an inconclusive call do not appear. Active and inactive are the calls of the source.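 How the source made its calls: active means fitted curve reaches activity 50 in the expected rising direction at or below the top valid tested dose; inconclusive means no clear call, values can overlap the other calls; inactive means activity in the wrong direction, and the rest.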
Classes used: True = active, False = inactive

- COMPOUND: "COc1cc(C2C3=C(COC3=O)Oc3cc4c(cc32)OCO4)cc(OC)c1O (stereo not drawn)"
  ASSIGNED_CLASS: "True"
- COMPOUND: "Clc1ccc(-n2nnnc2Sc2ncnc3sccc23)cc1"
  ASSIGNED_CLASS: "False"
- COMPOUND: "Oc1ccc(-c2nc(-c3ccc(O)c(O)c3)cs2)cc1"
  ASSIGNED_CLASS: "True"
